- Method: Cellular toxicity was measured in normal human granulocyte-monocyte progenitor cells (CFU-GM)
- Stated conditions: read-out: ID50 (the source's name)
Attribute measured: CC50 (nM)

Cc1cn([C@H]2C[C@H](N=[N+]=[N-])[C@@H](CO)O2)c(=O)[nH]c1=O; 1000
